As shown below, each of these sequences has a reported protein stability index value.
tested on: Saccharomyces cerevisiae; test: protein stability index of tFT-peptide fusion (C-terminal peptide) (PSI (0-1 scale)); higher = more stable (slower turnover); conditions: genetic background: wild type; temperature: 37 C;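 further: PSI is a weighted mean of sequencing reads over stability bins, variants kept only with over 10 reads, mCherry proximal and sfGFP distal, peptide attached via GGGS linker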
# print the numeric value only

Solved entries (count: 5):
input_sequence=PFFHVFLLLLLI test_system="Saccharomyces cerevisiae" parameter="protein stability index" meas_value=0.213
input_sequence=LSLVIFIFLYCR test_system="Saccharomyces cerevisiae" parameter="protein stability index" meas_value=0.205
input_sequence=KTSVLLCVSTSF test_system="Saccharomyces cerevisiae" parameter="protein stability index" meas_value=0.628
input_sequence=ILFRRRLCCFLK test_system="Saccharomyces cerevisiae" parameter="protein stability index" meas_value=0.484
input_sequence=LCAFLKLFILII test_system="Saccharomyces cerevisiae" parameter="protein stability index" meas_value=0.23

Attention now turns to another entry.
protein stability index of WRVFRPSLRLFA on Saccharomyces cerevisiae?
0.507
